System: XG2 (cancer type: MM)
Assay: normalized area under the dose-response curve (viability relative to DMSO control) (fraction); higher = less sensitive (more viable cells)
Settings: exposure time not given
Property label: normalized area under the dose-response curve
# respond with the number and nothing more

compound="O=P1(N(CCCl)CCCl)NCCCO1 (stereo not drawn) [Cyclophosphamide]" study_target="XG2 (cancer type: MM)" value_observed=0.878

Record request: normalized area under the dose-response curve value, item CNC(=O)c1cc(Oc2ccc(NC(=O)Nc3ccc(Cl)c(C(F)(F)F)c3)cc2)ccn1
0.543

One more compound: Nc1cccc2c1CN(C1CCC(=O)NC1=O)C2=O (stereo not drawn) [Lenalidomide]
0.861

One more compound: Nc1nc(Cl)nc2c1ncn2[C@H]1C[C@H](O)[C@@H](CO)O1
0.452

One more compound: Nc1ncn([C@H]2C[C@H](O)[C@@H](CO)O2)c(=O)n1
0.896

One more compound: CC1(C)CCC(CN2CCN(c3ccc(C(=O)NS(=O)(=O)c4ccc(NCC5CCOCC5)c([N+](=O)[O-])c4)c(Oc4cnc5[nH]ccc5c4)c3)CC2)=C(c2ccc(Cl)cc2)C1
0.846

One more compound: Cc1sc2c(c1C)C(c1ccc(Cl)cc1)=N[C@@H](CC(=O)OC(C)(C)C)c1nnc(C)n1-2
0.747

One more compound: CCc1cnn2c(NCc3ccc[n+]([O-])c3)cc(N3CCCC[C@H]3CCO)nc12
0.0928
